system: K562 (human chronic myelogenous leukemia) cells; test: Cell viability, Cell Titer Glo 2.0 assay, K562 cells; assay type: cell-based; conditions: 72 hours
Counter-ions that a name gives are not always drawn.
Recorded IC50 by entry

Enquiry: Can you look up the measured IC50 of "Cn1cc2cc(-c3cc4cn(C5CCNCC5)nc4s3)c(O)c(F)c2n1" for me?
Return: 1 to 10 µM

Enquiry: Follow-up item: "Cn1cc2cc(-c3cc4cn(C5CCOCC5)nc4s3)cc(F)c2n1"
Return: > 10 µM

Enquiry: Follow-up item: Cc1cn2nc(-c3cc4cn(C5CCNCC5)nc4s3)c(O)c2c(C)n1 [Compound 213, hydrochloride]
Return: 1 to 10 µM

Enquiry: Follow-up item: "Cn1cc2c(F)cc(-n3cc4cc(C5CCNCC5)sc4n3)cc2n1"
Return: 1 to 10 µM

Enquiry: Follow-up item: "Cc1cn2cc(-n3cc4sc(C5CCNCC5)cc4n3)ncc2n1"
Return: 1 to 10 µM
